# viability, T/C per record follows
System: 328373-195-R-J1-PDC complex spheroids, viability % test/control
Test: Anticancer human tumor 328373-195-R-J1-PDC patient-derived head and neck squamous carcinoma cell line growth inhibition [CLK]
Conditions: second compound 10 µM; first compound 0.316 µM; hits give low values
Measured attribute: viability, T/C (%)

compound="CC(=O)O[C@H]1C(=O)[C@@]2(C)[C@H]([C@H](OC(=O)c3ccccc3)[C@]3(O)C[C@H](OC(=O)[C@H](O)[C@@H](NC(=O)c4ccccc4)c4ccccc4)C(C)=C1C3(C)C)[C@]1(OC(C)=O)CO[C@@H]1C[C@@H]2O + CNC(=O)c1ccc(Nc2nc(OC3CCCC3)c3c(-c4ccc5nc(C)oc5c4)c[nH]c3n2)c(OC)c1" measured_value=30.5
compound="COc1c(OCCCN2CCOCC2)ccc2c3n(c(=NC(=O)c4cnc(N)nc4)nc12)CCN3 + CN1CCN(c2cc(C(=O)Nc3cc4cc(-c5cnn(C)c5)ccc4cn3)ccn2)CC1" measured_value=1.52

###

Test system: 328373-195-R-J1-PDC complex spheroids, viability % test/control
Experiment: Anticancer human tumor 328373-195-R-J1-PDC cell line growth inhibition [CLK]; active = viability on the fitted dose curve at most 10% of control; inactive = the rest;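 further: spheroids exposed to the agents for 7 days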
Conditions: second compound 0.0316 µM; first compound 0.00316 µM
Classes used: 1 (yes) for active, 0 (no) for inactive

compound="CCc1c2c(nc3ccc(O)cc13)-c1cc3c(c(=O)n1C2)COC(=O)[C@]3(O)CC + CNC(=O)c1ccc(Nc2nc(OC3CCCC3)c3c(-c4ccc5nc(C)oc5c4)c[nH]c3n2)c(OC)c1" category="1 (yes)"
compound="CCN1CCN(Cc2ccc(Nc3ncc(F)c(-c4cc(F)c5nc(C)n(C(C)C)c5c4)n3)nc2)CC1 + CNC(=O)c1ccc(Nc2nc(OC3CCCC3)c3c(-c4ccc5nc(C)oc5c4)c[nH]c3n2)c(OC)c1" category="0 (no)"
compound="Cn1ncnc1[C@H]1c2n[nH]c(=O)c3cc(F)cc(c23)N[C@@H]1c1ccc(F)cc1 + CN1CCN(c2cc(C(=O)Nc3cc4cc(-c5cnn(C)c5)ccc4cn3)ccn2)CC1" category="0 (no)"
compound="CCN1CCN(Cc2ccc(Nc3ncc(F)c(-c4cc(F)c5nc(C)n(C(C)C)c5c4)n3)nc2)CC1 + CN1CCN(c2cc(C(=O)Nc3cc4cc(-c5cnn(C)c5)ccc4cn3)ccn2)CC1" category="0 (no)"
compound="COc1c(OCCCN2CCOCC2)ccc2c3n(c(=NC(=O)c4cnc(N)nc4)nc12)CCN3 + CN1CCN(c2cc(C(=O)Nc3cc4cc(-c5cnn(C)c5)ccc4cn3)ccn2)CC1" category="0 (no)"

###

System: 328373-195-R-J1-PDC complex spheroids, viability % test/control
Assay: Anticancer human tumor 328373-195-R-J1-PDC cell line growth inhibition [CLK]; active = viability on the fitted dose curve at most 10% of control; inactive = the rest;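 further: spheroids exposed to the agents for 7 days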
Details: second compound 0.1 µM; first compound 0.1 µM
Possible outcomes: y for active, n for inactive

molecule="CC1(C)CCC(CN2CCN(c3ccc(C(=O)NS(=O)(=O)c4ccc(NCC5CCOCC5)c([N+](=O)[O-])c4)c(Oc4cnc5[nH]ccc5c4)c3)CC2)=C(c2ccc(Cl)cc2)C1 + CN1CCN(c2cc(C(=O)Nc3cc4cc(-c5cnn(C)c5)ccc4cn3)ccn2)CC1" study_system="328373-195-R-J1-PDC complex spheroids, viability % test/control" category=n
molecule="COc1c(OCCCN2CCOCC2)ccc2c3n(c(=NC(=O)c4cnc(N)nc4)nc12)CCN3 + CNC(=O)c1ccc(Nc2nc(OC3CCCC3)c3c(-c4ccc5nc(C)oc5c4)c[nH]c3n2)c(OC)c1" study_system="328373-195-R-J1-PDC complex spheroids, viability % test/control" category=y
molecule="COC1C=CCC(C)C(C)S(=O)(=O)NC(=O)c2ccc3c(c2)N(CC2CCC21)CC1(CCCc2cc(Cl)ccc21)CO3 (stereo not given) + CN1CCN(c2cc(C(=O)Nc3cc4cc(-c5cnn(C)c5)ccc4cn3)ccn2)CC1" study_system="328373-195-R-J1-PDC complex spheroids, viability % test/control" category=n
molecule="C#Cc1c(F)ccc2cc(O)cc(-c3ncc4c(N5CC6CCC(C5)N6)nc(OCC56CCCN5CC(F)C6)nc4c3F)c12 (stereo not given) + CN1CCN(c2cc(C(=O)Nc3cc4cc(-c5cnn(C)c5)ccc4cn3)ccn2)CC1" study_system="328373-195-R-J1-PDC complex spheroids, viability % test/control" category=n
molecule="Nc1ccccc1NC(=O)c1ccc(CNC(=O)OCc2cccnc2)cc1 + CNC(=O)c1ccc(Nc2nc(OC3CCCC3)c3c(-c4ccc5nc(C)oc5c4)c[nH]c3n2)c(OC)c1" study_system="328373-195-R-J1-PDC complex spheroids, viability % test/control" category=n
molecule="Cn1ncnc1[C@H]1c2n[nH]c(=O)c3cc(F)cc(c23)N[C@@H]1c1ccc(F)cc1 + CN1CCN(c2cc(C(=O)Nc3cc4cc(-c5cnn(C)c5)ccc4cn3)ccn2)CC1" study_system="328373-195-R-J1-PDC complex spheroids, viability % test/control" category=n
molecule="CCCS(=O)(=O)Nc1ccc(F)c(C(=O)c2c[nH]c3ncc(-c4ccc(Cl)cc4)cc23)c1F + CNC(=O)c1ccc(Nc2nc(OC3CCCC3)c3c(-c4ccc5nc(C)oc5c4)c[nH]c3n2)c(OC)c1" study_system="328373-195-R-J1-PDC complex spheroids, viability % test/control" category=n
molecule="C=C(F)C(=O)N1CCN(c2nc(OCC3CCCN3C)nc3c2CCN(c2cccc4cccc(Cl)c24)C3)CC1CC#N (stereo not given) + CNC(=O)c1ccc(Nc2nc(OC3CCCC3)c3c(-c4ccc5nc(C)oc5c4)c[nH]c3n2)c(OC)c1" study_system="328373-195-R-J1-PDC complex spheroids, viability % test/control" category=n
molecule="CCN1CCN(Cc2ccc(Nc3ncc(F)c(-c4cc(F)c5nc(C)n(C(C)C)c5c4)n3)nc2)CC1 + CN1CCN(c2cc(C(=O)Nc3cc4cc(-c5cnn(C)c5)ccc4cn3)ccn2)CC1" study_system="328373-195-R-J1-PDC complex spheroids, viability % test/control" category=n
molecule="O=C(c1cc(Cc2n[nH]c(=O)c3ccccc23)ccc1F)N1CCN(C(=O)C2CC2)CC1 + CNC(=O)c1ccc(Nc2nc(OC3CCCC3)c3c(-c4ccc5nc(C)oc5c4)c[nH]c3n2)c(OC)c1" study_system="328373-195-R-J1-PDC complex spheroids, viability % test/control" category=n

// provenance: PubChem BioAssay AID2060620
